Measured values drawn from PubChem BioAssay AID588564 for this set.

Biological target: Neuropeptides B/W receptor type 1 (Homo sapiens) (UniProt P48145)
Experiment: GPR7 antagonists, dose response, cell-based, fluorescence, set 4 (AID 588564)
Conditions: GPR7-expressing cells, fluorescence antagonist assay; run 1
Calls of active or inactive are those of the source. Rule as the data show it: active = IC50 below about 10 µM; inactive = the rest.
Possible outcomes: active, inactive

1. CCN(CC)C(=O)C(c1ccccc1Cl)n1ncc(Cl)c(Oc2ccc(OC)cc2)c1=O (configuration not stated)    active
2. Cc1ccccc1Cn1ncc(Oc2ccc(CO)cc2)c(Cl)c1=O    active
3. COc1ccc(Oc2c(C)c(C)nn(Cc3ccccc3C)c2=O)cc1    active
4. CCCC(=O)OCC(c1cccc2ccccc12)n1ncc(Cl)c(Oc2ccc(OC)cc2)c1=O (configuration not stated)    inactive
5. O=c1c(Oc2ccc(CCl)cc2)c(Cl)cnn1Cc1cccc2ccccc12    active
6. CCCCOC(=O)C(c1ccccc1Cl)n1ncc(Cl)c(Oc2ccc(OC)cc2)c1=O (configuration not stated)    active
7. COc1ccc(Oc2c(Cl)c(C3=CCCCC3)nn(Cc3ccccc3C)c2=O)cc1    active
